The origin of these recorded values is paper PMC9737983.

test-method-notes: Pharmacokinetic study in male SD rats (intravenous, oral, oral co-administration with verapamil)
Format: in vivo, Sprague–Dawley rats
measurement-parameters: oral 10 mg/kg
result-type: Cmax (ng/mL)
// units = ng/mL; emit number, no label

Endpoint output: Cmax of C[C@@]12C[C@@]3(O)O[C@@H](O1)[C@]1(COC(=O)c4ccccc4)[C@H]3C[C@@]12O[C@@H]1O[C@H](CO)[C@@H](O)[C@H](O)[C@H]1O [PF, paeoniflorin] . Value?
63.4

----------
test-method-notes: Pharmacokinetic study in male SD rats (intravenous, oral, oral co-administration with verapamil)
Type: in vivo, Sprague–Dawley rats
measurement-parameters: male, Sprague-Dawley, rat, plasma, po, 5 mg/kg, oral mono-administration 5 mg/kg, n = 5; read-out: Vz/F
result-type: Vd/F (L/kg)
// units = L/kg; emit number, no label

Endpoint output: Vd/F of C[C@@]12C[C@@]3(O)O[C@@H](O1)[C@]1(COC(=O)c4ccccc4)[C@H]3C[C@@]12O[C@@H]1O[C@H](CO)[C@@H](O)[C@H](O)[C@H]1O [PF, paeoniflorin] . Value?
85.7

----------
test-method-notes: Pharmacokinetic study in male SD rats (intravenous, oral, oral co-administration with verapamil)
Assay type: in vivo, Sprague–Dawley rats
measurement-parameters: male, Sprague-Dawley, rat, plasma, iv, 2 mg/kg, intravenous 2 mg/kg, n = 5; read-out: MRT0–∞
result-type: MRT inf (min)
// units = min; emit number, no label

Endpoint output: MRT inf of C[C@@]12C[C@@]3(O)O[C@@H](O1)[C@]1(COC(=O)c4ccccc4)[C@H]3C[C@@]12O[C@@H]1O[C@H](CO)[C@@H](O)[C@H](O)[C@H]1O . Value?
12

----------
test-method-notes: Pharmacokinetic study in male SD rats (intravenous, oral, oral co-administration with verapamil)
Format: in vivo, Sprague–Dawley rats
measurement-parameters: male, Sprague-Dawley, rat, plasma, po, 20 mg/kg, oral 20 mg/kg co-administration with verapamil (50 mg/kg), n = 5
result-type: Cmax (ng/mL)
// units = ng/mL; emit number, no label

Endpoint output: Cmax of C[C@@]12C[C@@]3(O)O[C@@H](O1)[C@]1(COC(=O)c4ccccc4)[C@H]3C[C@@]12O[C@@H]1O[C@H](CO)[C@@H](O)[C@H](O)[C@H]1O . Value?
464

----------
test-method-notes: Caco-2 Transwell transport of PF with and without verapamil
Type: in vitro ADME
measurement-parameters: human, Caco-2; absence of verapamil; 10 µM, 120 min
Procedure: The Caco−2 cells were purchased from ATCC (Manassas, VA, USA) and cultured in a DMEM high-glucose medium with 15% FBS, 1% NEAA, and 100 U/mL penicillin and streptomycin. […] The permeation of the test compounds from A to B directions or B to A directions was determined in duplicate over a 120-min incubation period at 37 °C and 5% CO2 with a relative humidity of 95%. In addition, the efflux ratio of each compound was also determined. […]
result-type: Papp B→A at 120 min, 10 µM
Answer shape: numeric part, then the unit.

Endpoint output: Papp B→A at 120 min, 10 µM of C[C@@]12C[C@@]3(O)O[C@@H](O1)[C@]1(COC(=O)c4ccccc4)[C@H]3C[C@@]12O[C@@H]1O[C@H](CO)[C@@H](O)[C@H](O)[C@H]1O . Value?
0.26 ×10⁻⁶ cm/s
